# measurement-conditions: in n-butanol, 303.15 K
endpoint-name: solubility (mole fraction)
Response field accepts a number only; no unit should be typed.

Look up solubility (mole fraction) of "NC(=O)N1c2ccccc2CC(=O)c2ccccc21" and report it.
0.000479

###

# measurement-conditions: in acetone, 288.15 K
endpoint-name: solubility (mole fraction)
Response field accepts a number only; no unit should be typed.

Look up solubility (mole fraction) of "NC(=O)N1c2ccccc2CC(=O)c2ccccc21" and report it.
0.00105

###

# measurement-conditions: in methanol, 288.15 K
endpoint-name: solubility (mole fraction)

Look up solubility (mole fraction) of "NC(=O)N1c2ccccc2CC(=O)c2ccccc21" and report it.
0.000534

###

# measurement-conditions: in isopropanol, 298.15 K
endpoint-name: solubility (mole fraction)
Response field accepts a number only; no unit should be typed.

Look up solubility (mole fraction) of "NC(=O)N1c2ccccc2CC(=O)c2ccccc21" and report it.
0.000217

###

# measurement-conditions: in ethanol, 303.15 K
endpoint-name: solubility (mole fraction)
Response field accepts a number only; no unit should be typed.

Look up solubility (mole fraction) of "NC(=O)N1c2ccccc2CC(=O)c2ccccc21" and report it.
0.000488

###

# measurement-conditions: in n-propanol, 293.15 K
endpoint-name: solubility (mole fraction)
Response field accepts a number only; no unit should be typed.

Look up solubility (mole fraction) of "NC(=O)N1c2ccccc2CC(=O)c2ccccc21" and report it.
0.000301

###

# measurement-conditions: in methanol, 308.15 K
endpoint-name: solubility (mole fraction)
Response field accepts a number only; no unit should be typed.

Look up solubility (mole fraction) of "NC(=O)N1c2ccccc2CC(=O)c2ccccc21" and report it.
0.00111

###

# measurement-conditions: in ethanol, 298.15 K
endpoint-name: solubility (mole fraction)
Response field accepts a number only; no unit should be typed.

Look up solubility (mole fraction) of "NC(=O)N1c2ccccc2CC(=O)c2ccccc21" and report it.
0.000383

###

# measurement-conditions: in ethanol, 308.15 K
endpoint-name: solubility (mole fraction)

Look up solubility (mole fraction) of "NC(=O)N1c2ccccc2CC(=O)c2ccccc21" and report it.
0.000617

###

# measurement-conditions: in n-propanol, 303.15 K
endpoint-name: solubility (mole fraction)
Response field accepts a number only; no unit should be typed.

Look up solubility (mole fraction) of "NC(=O)N1c2ccccc2CC(=O)c2ccccc21" and report it.
0.000475

###

# measurement-conditions: in methanol, 303.15 K
endpoint-name: solubility (mole fraction)
Response field accepts a number only; no unit should be typed.

Look up solubility (mole fraction) of "NC(=O)N1c2ccccc2CC(=O)c2ccccc21" and report it.
0.000907

###

# measurement-conditions: in acetonitrile, 308.15 K
endpoint-name: solubility (mole fraction)
Response field accepts a number only; no unit should be typed.

Look up solubility (mole fraction) of "NC(=O)N1c2ccccc2CC(=O)c2ccccc21" and report it.
0.00122

###

# measurement-conditions: in methanol, 298.15 K
endpoint-name: solubility (mole fraction)
Response field accepts a number only; no unit should be typed.

Look up solubility (mole fraction) of "NC(=O)N1c2ccccc2CC(=O)c2ccccc21" and report it.
0.000759

###

# measurement-conditions: in isopropanol, 293.15 K
endpoint-name: solubility (mole fraction)
Response field accepts a number only; no unit should be typed.

Look up solubility (mole fraction) of "NC(=O)N1c2ccccc2CC(=O)c2ccccc21" and report it.
0.000187
